The origin of these recorded values is paper doi:10.1101/2023.09.15.557927.

TARGET OR SYSTEM: 6xHis-tagged LC8 (DYNLL2) (human, UniProt Q96FJ2 1-89)
Sequence (Q96FJ2 whole entry): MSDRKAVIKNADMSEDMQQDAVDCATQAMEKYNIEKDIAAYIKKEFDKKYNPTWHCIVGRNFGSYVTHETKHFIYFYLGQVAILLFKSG
ASSAY INFO: fluorescence polarisation
EXPERIMENTAL READOUT: pKd
Entry type: numeric. Quantity: pKd, the -log10 of concentration in molar units.

Query: // pKd lookup, key: KESCNMETQTS [OFD1 peptide (KESCNMETQTS)]
Response: 4.89
